Entry source: patent US11214803B2

test system: Yap1 mRNA; test: Antisense inhibition of human Yap1 in A-431 cells by cEt gapmers, single dose (Example 4, RTS4814); format: cell-based; conditions: Yap1 mRNA remaining as percent of untreated control; 3-10-3 cEt gapmers; A-431 cells; Table 36
Strand notation (5' to 3'): a small letter for the sugar, then the base; units joined by * are phosphorothioate-linked, units joined directly phosphodiester-linked; [ ] holds rarer units or linkages, { } end groups; capitals alone tell only the bases. k = constrained ethyl (cEt); [5mC] = 5-methylcytosine; d = 2'-deoxy (DNA)
Response field class: enum, chosen by comparing YAP1 (% UTC) against lo (below 10 % UTC), mid (10 % UTC to below 20 % UTC), hi (20 % UTC or more)

{"columns": ["Substance", "Classification"],
 "data": [
  ["1074678 (antisense kT*kA*kA*dT*d[5mC]*dT*dG*dT*dG*dG*d[5mC]*dT*dA*k[5mC]*kT*kG) [compound 1074678]", "lo"],
  ["1074358 (antisense kT*k[5mC]*kG*dA*dG*dG*dG*dA*d[5mC]*dA*d[5mC]*dT*dG*kT*kA*kG) [compound 1074358]", "mid"],
  ["1075926 (antisense kG*kT*kA*dG*dA*dA*d[5mC]*d[5mC]*dT*dA*dT*dA*dT*kT*kA*kT) [compound 1075926]", "hi"]
]}

### Prompt Bin this entry: 1075862 (antisense k[5mC]*kT*kA*dA*dT*dA*dA*d[5mC]*dT*dT*dG*dT*d[5mC]*kT*kA*k[5mC]) [compound 1075862]
### Response hi

### Prompt Textbook exercise: identify the category of the substance given here, 1075382 (antisense kA*kT*kT*dA*dT*dT*dA*d[5mC]*d[5mC]*d[5mC]*dT*dA*d[5mC]*kT*k[5mC]*kA) [compound 1075382] , according to its measured value.
### Response hi

### Prompt Which class holds 1075766 (kG*kG*kA*dG*dA*dA*d[5mC]*dA*d[5mC]*dA*dA*dG*dA*kG*kG*k[5mC]; antisense) [compound 1075766] ?
### Response lo

---

tested on: Yap1 mRNA; test: Antisense inhibition of human Yap1 in SNU-449 cells by modified oligonucleotides, single dose (Example 5, RTS36584); assay type: cell-based; details: Table 44 experiment; SNU-449 cells, 10,000 cells per well, free uptake, 2,000 nM, approximately 48 hours; RTS36584; Yap1 mRNA normalized to RIBOGREEN, relative to untreated control cells
Strand notation (5' to 3'): a small letter for the sugar, then the base; units joined by * are phosphorothioate-linked, units joined directly phosphodiester-linked; [ ] holds rarer units or linkages, { } end groups; capitals alone tell only the bases. e = 2'-O-(2-methoxyethyl) (MOE); k = constrained ethyl (cEt); [5mC] = 5-methylcytosine; d = 2'-deoxy (DNA)
Exercise: state measured YAP1 (% UTC) for each of the substances provided.
Numbers only, in % UTC.

{"columns": ["Substance", "Tested target", "Unit of measure", "YAP1 (% UTC)"],
 "data": [
  ["1198539 (antisense kG*kA*d[5mC]*dT*dA*dA*dG*dT*dA*dA*dG*eG*kT*eT*kT*e[5mC]) [Compound 1198539]", "Yap1 mRNA", "% UTC", 54],
  ["1198529 (kT*kT*dA*dA*dA*dG*dT*dG*dT*dA*dT*eG*kT*e[5mC]*kA*eG; antisense) [Compound 1198529]", "Yap1 mRNA", "% UTC", 17],
  ["1198487 (antisense kT*kT*dA*dA*dG*d[5mC]*dA*d[5mC]*dT*dT*dT*eT*kA*e[5mC]*kA*eT) [Compound 1198487]", "Yap1 mRNA", "% UTC", 62],
  ["1198530 (kT*kT*dT*dA*dA*dA*dG*dT*dG*dT*dA*eT*kG*eT*k[5mC]*eA; antisense) [Compound 1198530]", "Yap1 mRNA", "% UTC", 29],
  ["1198532 (kA*kA*d[5mC]*dT*dT*dT*dA*dA*dA*dG*dT*eG*kT*eA*kT*eG; antisense) [Compound 1198532]", "Yap1 mRNA", "% UTC", 36]
]}

Proceeding to the next substance to report its YAP1 (% UTC).
// recorded YAP1 (% UTC) for 1198511 (kA*k[5mC]*dT*d[5mC]*dT*dT*dA*dT*dA*dT*dG*eG*kT*eT*kT*eT; antisense) [Compound 1198511] : 53

---

system: Yap1 mRNA; experiment: Antisense inhibition of human Yap1 in A-431 cells by cEt gapmers, single dose (Example 3, RTS36584); type: cell-based; conditions: Table 13; A-431 cells, 5,000 cells per well, free uptake, 2,000 nM modified oligonucleotide, approx. 48 hours; RTS36584; normalized to RIBOGREEN; Yap1 mRNA relative to untreated control cells
Strand notation (5' to 3'): a small letter for the sugar, then the base; units joined by * are phosphorothioate-linked, units joined directly phosphodiester-linked; [ ] holds rarer units or linkages, { } end groups; capitals alone tell only the bases. k = constrained ethyl (cEt); [5mC] = 5-methylcytosine; d = 2'-deoxy (DNA)
So I've got a bunch of substances here, and I need their YAP1 (% UTC) values.
One number for each entry, in % UTC.

Reference set, count: 2
{"columns": ["Substance", "YAP1 (% UTC)"],
 "data": [
  ["958805 (k[5mC]*kA*kA*dG*dA*dT*dA*dA*dT*d[5mC]*dA*dT*d[5mC]*k[5mC]*kT*k[5mC]; antisense) [Compound 958805]", 6],
  ["958670 (kG*kG*kT*d[5mC]*dT*dT*dG*dG*dT*dG*dA*dT*dT*kG*kG*k[5mC]; antisense) [Compound 958670]", 20]
]}

Now consider a different substance.
// field: YAP1 (% UTC); key: 958605 (antisense k[5mC]*kT*k[5mC]*dA*dG*dA*dT*dG*dT*dA*d[5mC]*d[5mC]*dA*kA*k[5mC]*kG) [Compound 958605] ; value = 7

---

Tested on: Yap1 mRNA
Assay: Antisense inhibition of human Yap1 in SNU-449 cells by modified oligonucleotides, single dose (Example 5, RTS36584)
Type: cell-based
Details: Table 43 experiment; SNU-449 cells, 10,000 cells per well, free uptake, 2,000 nM, approximately 48 hours; RTS36584; Yap1 mRNA normalized to RIBOGREEN, relative to untreated control cells
Method: Modified oligonucleotides with additional chemistry modifications were designed to target a Yap1 nucleic acid and were tested for their effect on Yap1 mRNA level in SNU-449 cells. […] After a treatment period of approximately 48 hours, RNA was isolated from the cells and Yap1 mRNA levels were measured by quantitative real-time RTPCR. […] Yap1 mRNA levels were normalized to total RNA content, as measured by RIBOGREEN®. […]
Strand notation (5' to 3'): a small letter for the sugar, then the base; units joined by * are phosphorothioate-linked, units joined directly phosphodiester-linked; [ ] holds rarer units or linkages, { } end groups; capitals alone tell only the bases. e = 2'-O-(2-methoxyethyl) (MOE); k = constrained ethyl (cEt); [5mC] = 5-methylcytosine; d = 2'-deoxy (DNA)
Assign YAP1 (% UTC) to each entry below.
Give bare numbers, in % UTC.

Quick one: give me YAP1 (% UTC) for each item below, same order please.
1. 1198277 (kA*kA*dG*dT*dA*dA*dG*dG*dT*dT*dT*e[5mC]*e[5mC]*e[5mC]*kA*kG; antisense) [Compound 1198277]
2. 1198218 (kA*kG*dG*dT*dA*dT*dA*dA*d[5mC]*dT*dG*eG*eG*e[5mC]*kA*kA; antisense) [Compound 1198218]

### Response
32
40

For reference, reported YAP1 (% UTC) for 1198278 (kT*kA*dA*dG*dT*dA*dA*dG*dG*dT*dT*eT*e[5mC]*e[5mC]*k[5mC]*kA; antisense) [Compound 1198278] stands at 43

---

tested on: Yap1 mRNA; experiment: Antisense inhibition of human Yap1 in A-431 cells by cEt gapmers, single dose (Example 2, RTS4814); assay type: cell-based; settings: Yap1 mRNA as percent of untreated control; A-431 cells; 3-10-3 cEt gapmers targeting SEQ ID NO.: 1, and 2; Table 31
Strand notation (5' to 3'): a small letter for the sugar, then the base; units joined by * are phosphorothioate-linked, units joined directly phosphodiester-linked; [ ] holds rarer units or linkages, { } end groups; capitals alone tell only the bases. k = constrained ethyl (cEt); [5mC] = 5-methylcytosine; d = 2'-deoxy (DNA)
Quantity name: YAP1 (% UTC)
Numbers only, in % UTC.

Completed entries (count: 2):
{"columns": ["Substance", "Quantity name", "Measured"],
 "data": [
  ["1074577 (DNA kT*kA*kT*dT*dT*d[5mC]*dT*dG*dT*d[5mC]*dA*dT*dG*k[5mC]*kA*k[5mC]) [compound 1074577]", "YAP1 (% UTC)", 3],
  ["1075473 (kA*kG*kT*dT*dA*dT*dA*dA*d[5mC]*dT*dG*dT*dA*k[5mC]*kT*kA; antisense) [compound 1075473]", "YAP1 (% UTC)", 89]
]}

For every listed record, write down its YAP1 (% UTC).
1. 1075441 (antisense kG*kA*kA*dT*dT*dA*dA*dA*dG*d[5mC]*dA*dG*dT*kG*k[5mC]*k[5mC]) [compound 1075441]
2. 1075857 (antisense k[5mC]*kT*kT*dA*dA*dA*d[5mC]*dA*dA*dT*d[5mC]*d[5mC]*d[5mC]*kT*kA*kA) [compound 1075857]

### Response
1: 24; 2: 69

Report YAP1 (% UTC) for every entry below.
1. 1075889 (antisense kA*kT*kT*dA*dA*dA*dA*dG*dT*dA*dG*dG*d[5mC]*k[5mC]*k[5mC]*kT) [compound 1075889]
2. 1074225 (antisense k[5mC]*k[5mC]*kA*dG*dA*dG*dA*d[5mC]*dT*dA*d[5mC]*dT*d[5mC]*k[5mC]*kA*kG) [compound 1074225]
3. 1076241 (k[5mC]*kA*kA*dT*dA*dA*dG*dG*dA*dA*d[5mC]*dA*dG*kT*kT*kT; antisense) [compound 1076241]

### Response
1: 71; 2: 11; 3: 42

Would you mind listing YAP1 (% UTC) for each of the following substances?
1. 1076369 (antisense kT*kA*kT*dT*d[5mC]*dG*dG*dT*dA*dT*dT*dT*dT*k[5mC]*kT*kA) [compound 1076369]
2. 1076273 (kA*kA*kA*d[5mC]*dA*dA*dA*dA*dT*dG*dG*d[5mC]*dG*kA*kA*kT; antisense) [compound 1076273]
3. 1076081 (kG*kA*kT*dA*dA*dT*dT*d[5mC]*dA*d[5mC]*d[5mC]*d[5mC]*dT*kT*kG*kT; antisense) [compound 1076081]
4. 1075953 (kA*kA*k[5mC]*d[5mC]*dT*dA*dT*dA*dT*dA*d[5mC]*d[5mC]*dT*kG*k[5mC]*kT; antisense) [compound 1075953]
5. 1076113 (kT*kG*kA*d[5mC]*dA*dA*dT*dA*dG*d[5mC]*d[5mC]*dA*dA*kT*kG*k[5mC]; antisense) [compound 1076113]

### Response
2
84
15
36
16

# YAP1 (% UTC) (substance: 1075249 (kA*kT*kT*dA*d[5mC]*dG*dA*dT*dT*dA*dG*dA*dT*k[5mC]*kA*kG; antisense) [compound 1075249] ) is 5
